Where do the numbers come from? From paper PMC12118597.

- system_name: SARS-CoV-2 NSP3 macrodomain (Mac1) (Severe acute respiratory syndrome coronavirus 2, UniProt P0DTD1)
- experiment_summary: biochemical
- Type: binding
measurement_type: Ki (µM)
One number for each entry, in µM.

Exercise: // query Ki value for entry Cc1c[nH]c2ncnc(NCC3(O)CCCCC3)c12 [AVI-3761]
Key: 12

###

- system_name: SARS-CoV-2 NSP3 macrodomain (Mac1) (Severe acute respiratory syndrome coronavirus 2, UniProt P0DTD1)
- experiment_summary: biochemical
- Assay type: binding
- stated_conditions: SARS CoV-2 macrodomain HTRF assay, dose-response; read-out: IC50
Give pIC50 for every item shown.
One number for each entry, as −log10 of the molar value.

Here is how some compounds turned out for pIC50.
* O[C@H]1CC[C@@H]2CCN(c3ncnc4[nH]ccc34)[C@@H]21 [AVI-3664] | 4.55
* OCC1CC=CCN1c1ncnc2[nH]ccc12 (stereo not shown) [AVI-6002] | 4.28
* OC1(CNc2ncnc3[nH]ccc23)CCCSC1 (stereo not shown) [AVI-4322] | 4.28

Answer for every listed entry: what is its pIC50? The entries follow.
1. OC1(CNc2ncnc3[nH]ccc23)CCC(F)(F)CC1 [AVI-4308]
2. CC1CCC(O)(CNc2ncnc3[nH]ccc23)CC1 (stereo not shown) [AVI-4312]
3. CCC(C)(CO)Nc1ncnc2[nH]ccc12 (stereo not shown) [AVI-3697]
4. OC1(CNc2ncnc3[nH]ccc23)CCOCC1 [AVI-4314]

Key:
1: 3.85; 2: 4.68; 3: 4.44; 4: 3.64

Batch request: pIC50 per item, same order as input.
1. CC(Nc1ncnc2[nH]ccc12)C1(O)CCCCC1 (stereo not shown) [AVI-4321]
2. OC[C@@H]1C[C@H](O)CN1c1ncnc2[nH]ccc12 [AVI-610]

Key:
1. 4.32
2. 3.80

// each compound listed below needs its pIC50
1. OC1(CNc2ncnc3[nH]ccc23)CCCCC1 [AVI-6217]
2. OCC1CC2(CCCC2)CN1c1ncnc2[nH]ccc12 (stereo not shown) [AVI-3708]
3. CC(C)(CO)Nc1ncnc2[nH]ccc12 [AVI-5266]
4. Cc1c[nH]c2ncnc(NCC3(O)CCCC3)c12 [AVI-3760]
5. OC[C@@H]1C[C@@H]2CCC[C@@H]2N1c1ncnc2[nH]ccc12 [AVI-3720]
6. O=C(O)C(F)(F)F.OCC1(Nc2ncnc3[nH]ccc23)CCCC1 [AVI-3692]
7. OC1(CNc2ncnc3[nH]ccc23)CCSCC1 [AVI-4319]
8. CC1(C)CCC(O)(CNc2ncnc3[nH]ccc23)CC1 [AVI-4310]

Key:
1. 4.38
2. 4.57
3. 4.49
4. 4.72
5. 4.55
6. 4.31
7. 3.77
8. 4.12
